Some compounds, each annotated with its measured IC50.
Tested on: STAT1/3 through TYK2/JAK1
method: IFNa induced STAT phosphorylation in HEK293 cells (SIE-bla reporter gene)
Format: cell-based
particulars: Homo sapiens, HEK293; HEK293T-sie-bla cells, IFNa at EC80, 4 hours; read-out: Inhibition of IFNa induced STAT phosphorylation HEK293 cells IC50

{"columns": ["compound", "value type", "result"],
 "data": [
  ["Cc1cc(Nc2cc(Nc3ccc(Br)cc3N(C)S(C)(=O)=O)ncn2)nc(C)n1 [Example 67]", "IC50", "10 to 100 nM"],
  ["Cc1cc(Nc2cc(Nc3ccc(C4CC4)cc3N(C)S(C)(=O)=O)ncn2)nc(C)n1 [Example 70]", "IC50", "< 10 nM"]
]}

# return recorded IC50 for input Cc1cc(Nc2cc(Nc3ncc(-c4ocnc4C)cc3N(C)S(C)(=O)=O)ncn2)nc(C)n1 [Example 170]
10 to 100 nM

In one line, give reported IC50 of the entry COCc1nc(-c2cccc(Nc3cc(Nc4cc(C)nc(C)n4)ncn3)c2OC)no1 [Example 30] .
100 to 1000 nM

Look up and state reported IC50 for Cc1cc(Nc2cc(Nc3ncc(-c4cnn(C)c4C)cc3[S+](C)[O-])ncn2)nc(C)n1 (centres unmarked) [Example 173]
< 10 nM

Give the reported IC50 for this compound. COc1c(Nc2cc(Nc3cc(C)nc(C)n3)ncn2)cccc1-c1ncn(CC2CCCOC2)n1 (centres unmarked) [Example 57]
10 to 100 nM

Return reported IC50. Input compound: Cc1cc(Nc2cc(Nc3ncccc3S(C)(=O)=O)ncn2)nc(C)n1 [Example 125]
< 10 nM

Given COc1c(Nc2cc(Nc3cc(C)nc(C)n3)ncn2)cccc1C1CCCCO1 (centres unmarked) [Example 56] , respond with its IC50.
> 1000 nM

* * *

Tested on: STAT1/3 through TYK2/JAK1
method: IFNa induced STAT phosphorylation in HEK293 cells (SIE-bla reporter gene)
Assay type: cell-based
particulars: Homo sapiens, HEK293; HEK293T-sie-bla cells, IFNa at EC80, 4 hours; read-out: Inhibition of IFNa induced STAT phosphorylation HEK293 cells IC50
Protocol: Stimulation of HEK293T-sie-bla cells with interferon alpha (INFa) activates the signaling pathway of STAT1/3 through TYK2/JAK1. In this assay, measurement of the activity of the reporter gene […]-lactamase expression was used as the readout. CellSensorTM SIE-bla HEK293T cell line were purchased from Thermo Fisher Scientific (ref. #K1649B) and cultured as specified by the provider. […] Then a FRET reading was performed on an appropriate plate reader. […]
pIC50: −log10 of the molar value.
value type: pIC50

{"columns": ["compound", "pIC50"],
 "data": [
  ["Cc1cc(Nc2cc(Nc3ccccc3P(C)(C)=O)ncn2)nc(C)n1 [Example 28]", "< 6.00"],
  ["Cc1cc(Nc2cc(Nc3ccccc3OC(F)(F)F)ncn2)nc(C)n1 [Example 10]", "< 6.00"],
  ["Cc1cc(Nc2cc(Nc3ncc(-c4nccn4C)cc3N(C)S(C)(=O)=O)ncn2)nc(C)n1 [Example 128]", "6.00 to 7.00"],
  ["Cc1cc(Nc2cc(Nc3cccc(F)c3N(C)S(C)(=O)=O)ncn2)nc(C)n1 [Example 76]", "7.00 to 8.00"],
  ["COc1c(Nc2cc(Nc3cc(C)nc(C)n3)ncn2)cccc1-c1ncn(C2COC2)n1 [Example 43]", "6.00 to 7.00"],
  ["Cc1cc(Nc2cc(Nc3ccc(C4CCCCO4)cc3N(C)S(C)(=O)=O)ncn2)nc(C)n1 (stereo not drawn) [Example 107]", "> 8.00"],
  ["CN=S(C)(=O)c1ccccc1Nc1cc(Nc2cc(C)nc(C)n2)ncn1 (stereo not drawn) [Example 112]", "7.00 to 8.00"],
  ["COc1cc(-c2cnn(C)c2)c(C)nc1Nc1cc(Nc2cc(C)ncn2)ncn1 [Example 165]", "6.00 to 7.00"],
  ["Cc1cc(Nc2cc(Nc3ccc(C4CCCOC4)cc3N(C)S(C)(=O)=O)ncn2)nc(C)n1 (stereo not drawn) [Example 105]", "> 8.00"],
  ["Cc1cc(Nc2cc(Nc3ccc(-c4cn[nH]c4C)cc3N(C)S(C)(=O)=O)ncn2)nc(C)n1 [Example 89]", "7.00 to 8.00"]
]}

Please indicate pIC50 recorded for Cc1cc(Nc2cc(Nc3ncc(-c4cc(C)nn4C)cc3N(C)S(C)(=O)=O)ncn2)nc(C)n1 [Example 129]
7.00 to 8.00

Quick one: give measured pIC50 for Cc1cc(Nc2cc(Nc3ncc(-c4ccn(C)n4)cc3N(C)S(C)(=O)=O)ncn2)nc(C)n1 [Example 131]
7.00 to 8.00
